Target: Cytochrome P450 2C9 (Homo sapiens) (UniProt P11712)
Sequence (P11712 whole entry, looked up): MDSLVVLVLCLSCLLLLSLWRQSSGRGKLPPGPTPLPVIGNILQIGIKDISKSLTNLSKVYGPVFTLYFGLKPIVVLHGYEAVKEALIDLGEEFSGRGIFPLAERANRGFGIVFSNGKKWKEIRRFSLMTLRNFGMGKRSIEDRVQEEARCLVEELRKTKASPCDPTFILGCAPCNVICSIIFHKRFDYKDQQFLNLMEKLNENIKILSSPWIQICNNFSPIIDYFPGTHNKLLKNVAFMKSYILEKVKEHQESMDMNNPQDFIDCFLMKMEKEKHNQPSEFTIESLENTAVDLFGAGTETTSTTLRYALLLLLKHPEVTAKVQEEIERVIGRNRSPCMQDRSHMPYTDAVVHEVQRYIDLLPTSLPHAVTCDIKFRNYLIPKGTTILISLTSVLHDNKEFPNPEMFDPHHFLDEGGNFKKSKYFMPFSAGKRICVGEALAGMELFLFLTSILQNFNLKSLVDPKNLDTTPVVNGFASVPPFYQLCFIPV
Test: Cytochrome panel assay with activity outcomes
Conditions: recombinant CYP, pro-luciferin dealkylation, luminescence, p450-cyp2c9; series mostly up to 57.1 µM
The whole screen tested about 16,000 compounds, of which about 4,000 (25%) were called active. About 26% were inconclusive and are not listed. Calls follow the shape of the dose curve; as a rule, active = well fitted curve in the direction sought with a large enough effect; inconclusive = small, poorly fitted or top-dose-only effect, or effect the other way; inactive = no such curve, though single readings can be large or run the other way. A selection follows.
Use one of these outcomes when replying: label 1 = active, label 0 = inactive

| COMPOUND | CLASS_LABEL |
| --- | --- |
| c1ccc(SC(Sc2ccccc2)c2ccc3c(c2)OCO3)cc1 | label 1 |
| O=C(c1ccc(F)cc1)C1CCN(CCCCc2ccccc2)CC1 | label 0 |
| COc1ccc2[nH]cc(CCNc3ncnc4ccc(-c5ccccc5C#N)cc34)c2c1 | label 1 |
| NC(=O)/C(=N\OC(=O)c1ccco1)c1nc(-c2ccc(Br)cc2)cs1 | label 0 |
| COc1cc(-c2nnc(SCC(=O)Nc3ccc4c(c3)OCCO4)o2)cc(OC)c1OC | label 1 |
| COc1ccc2[nH]cc(CCNc3ncnc4ccc(-c5cccnc5)cc34)c2c1 | label 1 |
| O=C(c1cnccn1)N1CCC[C@@]2(CCN(C(c3ccccc3)c3ccccc3)C2)C1 | label 0 |
| Cc1ccccc1CSc1nccn1-c1ccccc1 | label 1 |

Per the assay record, what outcome was assigned to `Cn1nnnc1SCc1ccccc1[N+](=O)[O-]` ?
label 0

Per the assay record, what outcome was assigned to O=C(NCc1ccccc1)c1ccc2c(c1)C(=O)N(CC1CCCO1)C2=O (stereo unspecified) ?
label 0

Per the assay record, what outcome was assigned to `O=C(c1cnccn1)N1CCC2(CC1)CN(C(c1ccccc1)c1ccccc1)C2` ?
label 0

---

Target: Cytochrome P450 2C9 (Homo sapiens)
Assay: Cytochrome panel assay with activity outcomes
Conditions: recombinant CYP, pro-luciferin dealkylation, luminescence, p450-cyp2c9; series mostly up to 57.1 µM
Out of some 16,000 compounds screened, about 4,000 (25%) were called active. Inconclusive results (about 26%) are left out. The call rests on the fitted dose curve; in most records, active means well fitted curve in the direction sought with a large enough effect; inconclusive means small, poorly fitted or top-dose-only effect, or effect the other way; inactive means no such curve, though single readings can be large or run the other way. The list is a sample of the results.
Use one of these outcomes when replying: active, inactive

| COMPOUND | TEST_SYSTEM | CLASS_LABEL |
| --- | --- | --- |
| CSc1ccc(CNc2ccccc2)cc1 | Cytochrome P450 2C9 (Homo sapiens) | active |

Per the assay record, what outcome was assigned to `CCN1CCN(C(=O)N[C@H](C(=O)N[C@@H]2C(=O)N3[C@@H]2SC(C)(C)[C@@H]3C(=O)O)c2ccccc2)C(=O)C1=O` ?
inactive

Per the assay record, what outcome was assigned to Cc1ccc2c(c1)N(CC(=O)NC1CCC(C)CC1)C(=O)CO2 (stereo not given) ?
inactive

Per the assay record, what outcome was assigned to `COc1ccccc1NC(=O)Cn1cncc1-c1ccc([N+](=O)[O-])cc1` ?
inactive

Per the assay record, what outcome was assigned to `O=C1/C(=N\O)Cc2ccccc21` ?
inactive

Per the assay record, what outcome was assigned to `CC1(C)Oc2ccc(C#N)cc2[C@H](N2CCCC2=O)[C@H]1O` ?
inactive

Per the assay record, what outcome was assigned to CC1CCCN(C(=O)c2sc3cc([N+](=O)[O-])ccc3c2Cl)C1 (stereo not given) ?
inactive

Per the assay record, what outcome was assigned to `CCC(CC)c1nnc(NC(=O)c2cccc(S(=O)(=O)N3CCc4ccccc43)c2)s1` ?
active

---

Target: Cytochrome P450 2C9 (Homo sapiens) (UniProt P11712)
Assay: Cytochrome panel assay with activity outcomes
Conditions: recombinant CYP, pro-luciferin dealkylation, luminescence, p450-cyp2c9; series mostly up to 57.1 µM
In all, about 16,000 compounds went through this assay and about 4,000 (25%) were called active. Another 26% or so got no clear call; they are omitted. Calls come from the whole dose curve; as a rule, active = well fitted curve in the direction sought with a large enough effect; inconclusive = small, poorly fitted or top-dose-only effect, or effect the other way; inactive = no such curve, though single readings can be large or run the other way. The list is a sample of the results.
Use one of these outcomes when replying: active, inactive

| COMPOUND | CLASS_LABEL |
| --- | --- |
| CCCN(CCC)CCCNC(=O)c1ccc2c(c1)N(CC)C(=O)c1ccccc1S2=O (stereo not given) | inactive |
| COc1ccc(Oc2c(C=O)c3ccccc3n2C)cc1 | inactive |
| Cc1ccccc1C(C(=O)NCc1ccccc1)N(Cc1ccco1)C(=O)c1ccccn1 (stereo not given) | active |
| Cc1cc(C)nc(Nc2ncc(O)n2-c2ccccc2)n1 | inactive |
| COc1ccc(OCCn2c(C)c(/C=N/n3cnnc3)c3ccccc32)cc1 | active |

Note: attention shifts to another entry.
Per the assay record, what outcome was assigned to COC(=O)CNC(c1ccccc1Cl)c1cc(Br)ccc1NC(=O)CCN1CCOCC1 (stereo not given) ?
active

---

Target: Cytochrome P450 2C9 (Homo sapiens) (UniProt P11712)
Test: Cytochrome panel assay with activity outcomes
Conditions: recombinant CYP, pro-luciferin dealkylation, luminescence, p450-cyp2c9; series mostly up to 57.1 µM
The campaign covered roughly 16,000 compounds. About 4,000 (25%) were called active. About 26% were inconclusive and are not listed. Calls come from the whole dose curve; as a rule, active = well fitted curve in the direction sought with a large enough effect; inconclusive = small, poorly fitted or top-dose-only effect, or effect the other way; inactive = no such curve, though single readings can be large or run the other way. Only a sample is shown.
Use one of these outcomes when replying: active, inactive

| MOLECULAR_STRING | CLASS_LABEL |
| --- | --- |
| O=[N+]([O-])c1ccc(N2CCCCC2)c(Cl)c1N1CCCCC1 | active |
| CN1CCN(S(=O)(=O)c2cc([N+](=O)[O-])ccc2N2CCCCCC2)CC1 | inactive |
| C/C(=N\NC(=O)c1ccccc1C)c1ccc(NC(=O)c2cccs2)cc1 | active |
| CC(C)Cn1c(SCc2nc3ccccc3c(=O)[nH]2)nc2ccccc2c1=O | active |
| CCCC(=O)N1CCN(c2ccc(NC(=O)c3ccc(OCC)c([N+](=O)[O-])c3)cc2)CC1 | inactive |
| Cc1sc(NC(=O)C2CCCCC2)c(C#N)c1-c1ccccc1 | active |
| COc1cc(NC(=O)c2cc(Cl)ccc2Cl)ccc1-c1cc2ccccc2oc1=O | active |
| Cc1cc2cc(C)c3nnc(SCC(=O)NCc4ccc5c(c4)OCO5)n3c2cc1C | inactive |
| NC(=O)NC(=O)Nc1ccccc1Cl | inactive |
| Cc1ccc2cc(C)c3nnc(SCC(=O)NCc4ccco4)n3c2c1 | active |

Per the assay record, what outcome was assigned to `COc1cc(C(=O)NC(=S)Nc2ccc3oc(=O)ccc3c2)cc(OC)c1OC` ?
inactive

Per the assay record, what outcome was assigned to `O=C(OC1CCN(c2ncc(C(F)(F)F)cc2Cl)CC1)c1ccccc1` ?
active

Per the assay record, what outcome was assigned to `Cc1cc(NC(=O)CSc2nc3ccsc3c(=O)n2CCCCC(=O)O)no1` ?
inactive

Per the assay record, what outcome was assigned to `Cc1cc(NC(=O)CSc2nc3ccsc3c(=O)n2Cc2ccccn2)n[nH]1` ?
active

Per the assay record, what outcome was assigned to `CCn1cc(C(=O)O)c(=O)c2cnc(N3CCNCC3)nc21` ?
inactive

Per the assay record, what outcome was assigned to `Cc1nc(-c2cccc(NC(=O)c3cc4cc(Br)ccc4oc3=O)c2)cs1` ?
inactive

Per the assay record, what outcome was assigned to `O=C1CCCC=C1[C@H](CCc1ccccc1)OC(=O)c1ccc(Br)cc1` ?
active

---

Molecular target: Cytochrome P450 2C9 (Homo sapiens)
Assay: Cytochrome panel assay with activity outcomes
Conditions: recombinant CYP, pro-luciferin dealkylation, luminescence, p450-cyp2c9; series mostly up to 57.1 µM
Among all 16,000 compounds or so, about 4,000 (25%) were called active. Not shown: some 26% with an inconclusive outcome. Only a sample is shown.
ATTRIBUTE_MEASURED: AC50

Solved entries:
| MOLECULAR_STRING | AC50 |
| --- | --- |
| COc1c2c(nc3ccccc13)O[C@@H]([C@@](C)(O)CO)C2 | inactive |
| O=C(Nc1ccccc1)N[C@H]1C[C@H](C(=O)O)Nc2cc(Cl)cc(Cl)c21 | inactive |
| CN(C(=O)CC(NC(=O)c1ccccc1)(c1ccccc1)c1ccccc1)c1ccccc1 | 15.8 µM (active) |
| CCOc1ccc(N2C(=O)CN=C2Nc2ccccc2F)cc1 | 12.6 µM (active) |
| CSc1nsc(/C=C/Nc2ccc(Cl)cc2)c1C#N | 2.24 µM (active) |
| COc1ccc(C(=O)Nc2cccc(OC(=O)c3ccc(C)c(C)c3)c2)cc1 | 3.55 µM (active) |

Value wanted: AC50 (Cytochrome P450 2C9 (Homo sapiens)) of entry `Cc1ccc(-n2c(SCC(=O)NCc3ccco3)nc3sc4c(c3c2=O)CC(C)(C)SC4)cc1`
2.24 µM (active)

Value wanted: AC50 (Cytochrome P450 2C9 (Homo sapiens)) of entry `CCCCCCCCCCCCCCCCCCOC[C@@H](COP(=O)([O-])OCC[N+](C)(C)C)OC`
inactive

Value wanted: AC50 (Cytochrome P450 2C9 (Homo sapiens)) of entry `O=C1CC[C@H](N2C(=O)c3ccccc3C2=O)C(=O)N1`
inactive

Value wanted: AC50 (Cytochrome P450 2C9 (Homo sapiens)) of entry `Cc1ccc(-c2ccc(/C=N/NC(=S)Nc3ccccc3)o2)cc1[N+](=O)[O-]`
3.98 µM (active)

Value wanted: AC50 (Cytochrome P450 2C9 (Homo sapiens)) of entry `CC[C@]1(O)C[C@@H]2CN(CCc3c([nH]c4ccccc34)[C@](C(=O)OC)(c3cc4c(cc3OC)N(C)[C@H]3[C@](O)(C(=O)OC)[C@@H](C(=O)OC)[C@@]5(CC)C=CCN6CC[C@@]43[C@@H]65)C2)C1`
inactive

Value wanted: AC50 (Cytochrome P450 2C9 (Homo sapiens)) of entry `N=C1/C(=C/c2cccs2)C(=O)N=C2SN=C(SCc3ccccc3)N12`
0.316 µM (active)

Value wanted: AC50 (Cytochrome P450 2C9 (Homo sapiens)) of entry `CCOc1ccc(N2C(=O)/C(=C/c3cccs3)N(CC(=O)OC)C2=S)cc1`
inactive
